Items are presented alongside their recorded Selectivity ratio.
Organism: Homo sapiens
test.details: Selectivity ratio of Ki for human adenosine A2A receptor to Ki for human adenosine A3 receptor
measurement.type: Selectivity ratio

[
  {
    "smiles.entry": "CCOC(=O)c1c(NC(=O)c2sc(Nc3ccc(OC)cc3)nc2N(C)C)sc(C(=O)OC)c1C",
    "endpoint.result": 3.5
  },
  {
    "smiles.entry": "CCOC(=O)c1c(NC(=O)c2sc(NC(=O)OC)nc2N(C)C)sc2c1CCCC2",
    "endpoint.result": "> 3.3"
  },
  {
    "smiles.entry": "Cc1ccc(Nc2nc(N(C)C)c(C(=O)Nc3sc4c(c3C(N)=O)CCCC4)s2)cc1",
    "endpoint.result": 3.1
  },
  {
    "smiles.entry": "Cc1ccc(Nc2nc(N(C)C)c(C(=O)Nc3sc4c(c3C#N)CCCC4)s2)cc1",
    "endpoint.result": "> 0.29"
  },
  {
    "smiles.entry": "CCOC(=O)c1c(NC(=O)c2sc(Nc3ccccc3)nc2-c2ccc(C)cc2)sc2c1CCCC2",
    "endpoint.result": 6.9
  },
  {
    "smiles.entry": "COc1ccc(Nc2nc(-c3ccc(C)cc3)c(C(=O)Nc3sc4c(c3C#N)CCCC4)s2)cc1",
    "endpoint.result": "> 3.1"
  },
  {
    "smiles.entry": "CN(C)c1nc(Nc2ccccc2)sc1C(=O)Nc1sc2c(c1C#N)CCCC2",
    "endpoint.result": "> 0.84"
  }
]

====

tested.on: Adenosine receptor A3 (Homo sapiens, UniProt P0DMS8)
Sequence (P0DMS8 whole entry): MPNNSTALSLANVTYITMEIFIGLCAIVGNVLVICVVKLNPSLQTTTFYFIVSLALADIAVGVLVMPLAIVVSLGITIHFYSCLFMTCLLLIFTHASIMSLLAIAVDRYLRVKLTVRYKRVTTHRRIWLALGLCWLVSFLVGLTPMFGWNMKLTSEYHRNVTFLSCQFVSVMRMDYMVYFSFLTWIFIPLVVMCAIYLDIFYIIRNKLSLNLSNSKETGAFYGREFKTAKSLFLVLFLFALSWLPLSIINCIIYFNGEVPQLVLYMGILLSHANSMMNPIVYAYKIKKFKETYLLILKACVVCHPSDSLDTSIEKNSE
pKi: −log10 of the molar value.

[
  {
    "smiles.entry": "CCOC(=O)c1c(NC(=O)c2sc(NC(=O)OC)nc2N(C)C)sc2c1CCCC2",
    "tested.on": "Adenosine receptor A3 (Homo sapiens, UniProt P0DMS8)",
    "censoring.sign": "<",
    "pKi": 4.52
  },
  {
    "smiles.entry": "CCOC(=O)c1c(NC(=O)c2sc(Nc3ccc(OC)cc3)nc2-c2ccc(C)cc2)sc2c1CCCC2",
    "tested.on": "Adenosine receptor A3 (Homo sapiens, UniProt P0DMS8)",
    "censoring.sign": "=",
    "pKi": 6.28
  },
  {
    "smiles.entry": "COc1ccc(Nc2nc(-c3ccc(C)cc3)c(C(=O)Nc3sc4c(c3C#N)CCCC4)s2)cc1",
    "tested.on": "Adenosine receptor A3 (Homo sapiens, UniProt P0DMS8)",
    "censoring.sign": "=",
    "pKi": 5.02
  },
  {
    "smiles.entry": "CCOC(=O)c1c(NC(=O)c2sc(Nc3ccc(C)cc3)nc2C)sc2c1CCCC2",
    "tested.on": "Adenosine receptor A3 (Homo sapiens, UniProt P0DMS8)",
    "censoring.sign": "=",
    "pKi": 5.09
  },
  {
    "smiles.entry": "CCOC(=O)c1c(NC(=O)c2sc(Nc3ccc(OC)cc3)nc2N(C)C)sc(C(=O)OC)c1C",
    "tested.on": "Adenosine receptor A3 (Homo sapiens, UniProt P0DMS8)",
    "censoring.sign": "=",
    "pKi": 5.56
  },
  {
    "smiles.entry": "CCOC(=O)c1c(NC(=O)c2sc(Nc3ccc(C)cc3)nc2C)sc(C(=O)OC)c1C",
    "tested.on": "Adenosine receptor A3 (Homo sapiens, UniProt P0DMS8)",
    "censoring.sign": "<",
    "pKi": 4.52
  },
  {
    "smiles.entry": "Cc1ccc(Nc2nc(N(C)C)c(C(=O)Nc3sc4c(c3C#N)CCCC4)s2)cc1",
    "tested.on": "Adenosine receptor A3 (Homo sapiens, UniProt P0DMS8)",
    "censoring.sign": "=",
    "pKi": 4.47
  },
  {
    "smiles.entry": "Cc1ccc(Nc2nc(C)c(C(=O)Nc3sc4c(c3C#N)CCCC4)s2)cc1",
    "tested.on": "Adenosine receptor A3 (Homo sapiens, UniProt P0DMS8)",
    "censoring.sign": "=",
    "pKi": 5.41
  }
]

====

tested.on: Adenosine receptors; A1 & A3 (Homo sapiens) (UniProt P30542+P0DMS8)
test.details: Selectivity ratio of Ki for human adenosine A1 receptor to Ki for human adenosine A3 receptor

[
  {
    "smiles.entry": "CCOC(=O)c1c(NC(=O)c2sc(Nc3ccc(C)cc3)nc2N(C)C)sc2c1CCCC2",
    "censoring.sign": "=",
    "Selectivity ratio": 5
  },
  {
    "smiles.entry": "CCOC(=O)c1c(NC(=O)c2sc(Nc3ccc(OC)cc3)nc2N(C)C)sc(C(=O)OC)c1C",
    "censoring.sign": "=",
    "Selectivity ratio": 5.1
  },
  {
    "smiles.entry": "COc1ccc(Nc2nc(-c3ccc(C)cc3)c(C(=O)Nc3sc4c(c3C#N)CCCC4)s2)cc1",
    "censoring.sign": ">",
    "Selectivity ratio": 3.1
  },
  {
    "smiles.entry": "CCOC(=O)c1c(NC(=O)c2sc(Nc3ccccc3)nc2N(C)C)sc2c1CCCC2",
    "censoring.sign": "=",
    "Selectivity ratio": 9.9
  },
  {
    "smiles.entry": "CCOC(=O)c1c(NC(=O)c2sc(Nc3ccc(C)cc3)nc2C)sc2c1CCCC2",
    "censoring.sign": ">",
    "Selectivity ratio": 3.7
  },
  {
    "smiles.entry": "CCOC(=O)c1c(NC(=O)c2sc(Nc3ccc(OC)cc3)nc2-c2ccc(C)cc2)sc2c1CCCC2",
    "censoring.sign": ">",
    "Selectivity ratio": 19
  },
  {
    "smiles.entry": "Cc1ccc(Nc2nc(N(C)C)c(C(=O)Nc3sc4c(c3C#N)CCCC4)s2)cc1",
    "censoring.sign": ">",
    "Selectivity ratio": 2.9
  },
  {
    "smiles.entry": "CCOC(=O)c1c(NC(=O)c2sc(Nc3ccc(C)cc3)nc2-c2ccc(C)cc2)sc2c1CCCC2",
    "censoring.sign": ">",
    "Selectivity ratio": 14
  },
  {
    "smiles.entry": "CCOC(=O)c1c(NC(=O)c2sc(Nc3ccc(C)cc3)nc2N(C)C)sc(C(=O)OC)c1C",
    "censoring.sign": "=",
    "Selectivity ratio": 4.9
  },
  {
    "smiles.entry": "Cc1ccc(Nc2nc(-c3ccc(C)cc3)c(C(=O)Nc3sc4c(c3C(N)=O)CCCC4)s2)cc1",
    "censoring.sign": ">",
    "Selectivity ratio": 90
  },
  {
    "smiles.entry": "CCOC(=O)c1c(NC(=O)c2sc(Nc3ccccc3)nc2-c2ccc(C)cc2)sc2c1CCCC2",
    "censoring.sign": "=",
    "Selectivity ratio": 1.9
  },
  {
    "smiles.entry": "Cc1ccc(Nc2nc(C)c(C(=O)Nc3sc4c(c3C#N)CCCC4)s2)cc1",
    "censoring.sign": ">",
    "Selectivity ratio": 7.8
  },
  {
    "smiles.entry": "Cc1ccc(-c2nc(Nc3ccccc3)sc2C(=O)Nc2sc3c(c2C(N)=O)CCCC3)cc1",
    "censoring.sign": "=",
    "Selectivity ratio": 7.1
  },
  {
    "smiles.entry": "CCOC(=O)c1c(NC(=O)c2sc(NC(=O)OC)nc2N(C)C)sc2c1CCCC2",
    "censoring.sign": ">",
    "Selectivity ratio": 3.3
  },
  {
    "smiles.entry": "Cc1ccc(Nc2nc(N(C)C)c(C(=O)Nc3sc4c(c3C(N)=O)CCCC4)s2)cc1",
    "censoring.sign": "=",
    "Selectivity ratio": 4.5
  },
  {
    "smiles.entry": "CN(C)c1nc(Nc2ccccc2)sc1C(=O)Nc1sc2c(c1C#N)CCCC2",
    "censoring.sign": ">",
    "Selectivity ratio": 0.84
  }
]

====

Species: Homo sapiens
test.details: Selectivity ratio of Ki for human adenosine A2A receptor to Ki for human adenosine A3 receptor
measurement.type: Selectivity ratio

[
  {
    "smiles.entry": "CCOC(=O)c1c(NC(=O)c2sc(Nc3ccc(OC)cc3)nc2-c2ccc(C)cc2)sc2c1CCCC2",
    "censoring.sign": ">",
    "endpoint.result": 19
  },
  {
    "smiles.entry": "Cc1ccc(Nc2nc(-c3ccc(C)cc3)c(C(=O)Nc3sc4c(c3C(N)=O)CCCC4)s2)cc1",
    "censoring.sign": ">",
    "endpoint.result": 30
  },
  {
    "smiles.entry": "Cc1ccc(Nc2nc(C)c(C(=O)Nc3sc4c(c3C#N)CCCC4)s2)cc1",
    "censoring.sign": "=",
    "endpoint.result": 1.5
  },
  {
    "smiles.entry": "CCOC(=O)c1c(NC(=O)c2sc(Nc3ccc(C)cc3)nc2N(C)C)sc2c1CCCC2",
    "censoring.sign": "=",
    "endpoint.result": 3.8
  },
  {
    "smiles.entry": "Cc1ccc(-c2nc(Nc3ccccc3)sc2C(=O)Nc2sc3c(c2C(N)=O)CCCC3)cc1",
    "censoring.sign": "=",
    "endpoint.result": 10
  }
]
